Biological target: USP25 (USP25-His6, Boston Biochem E-546) (Homo sapiens)
Construct: His6; purchased Boston Biochem E-546
Sequence (Q9UHP3 whole entry): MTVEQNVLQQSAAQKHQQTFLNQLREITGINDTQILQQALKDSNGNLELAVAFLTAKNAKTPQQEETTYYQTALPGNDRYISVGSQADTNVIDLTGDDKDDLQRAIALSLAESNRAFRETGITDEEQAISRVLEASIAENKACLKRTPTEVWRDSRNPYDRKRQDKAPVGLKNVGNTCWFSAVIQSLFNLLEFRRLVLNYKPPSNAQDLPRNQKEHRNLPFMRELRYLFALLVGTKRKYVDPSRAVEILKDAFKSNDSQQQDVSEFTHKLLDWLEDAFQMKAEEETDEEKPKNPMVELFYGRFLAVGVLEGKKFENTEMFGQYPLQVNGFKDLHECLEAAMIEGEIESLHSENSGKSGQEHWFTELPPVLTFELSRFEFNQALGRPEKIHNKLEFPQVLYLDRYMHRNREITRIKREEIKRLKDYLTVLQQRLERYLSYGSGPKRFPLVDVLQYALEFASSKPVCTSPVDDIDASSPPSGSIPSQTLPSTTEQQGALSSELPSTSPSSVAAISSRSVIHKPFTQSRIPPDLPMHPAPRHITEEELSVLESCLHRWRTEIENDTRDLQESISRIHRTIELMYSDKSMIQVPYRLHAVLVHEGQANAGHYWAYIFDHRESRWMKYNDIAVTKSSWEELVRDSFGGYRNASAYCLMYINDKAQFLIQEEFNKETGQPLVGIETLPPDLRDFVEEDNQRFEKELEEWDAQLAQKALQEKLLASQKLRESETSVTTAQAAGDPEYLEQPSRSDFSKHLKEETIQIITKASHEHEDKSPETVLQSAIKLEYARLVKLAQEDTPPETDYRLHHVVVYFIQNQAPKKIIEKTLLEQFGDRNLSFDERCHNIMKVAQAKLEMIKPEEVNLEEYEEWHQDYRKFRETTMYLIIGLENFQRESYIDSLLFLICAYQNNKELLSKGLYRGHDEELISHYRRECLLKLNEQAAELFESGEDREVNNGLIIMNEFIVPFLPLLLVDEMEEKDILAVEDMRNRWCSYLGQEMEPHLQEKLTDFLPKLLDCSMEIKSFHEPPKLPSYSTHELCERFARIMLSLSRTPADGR
Test: Ubiquitin-Rhodamine 110 Assay for USP25 Activity, Example A-2
Format: biochemical
Conditions: Ub-Rh110 assay, Example A-2; read-out: USP25 A-2 IC50 range
observable: IC50

IC50 of Cc1ccc2c(N)c(C(=O)N[C@@H]3COc4cc(N5CC6CCC(C5)N6)cc(F)c4C3)sc2n1 (single isomer, unassigned) , assay on USP25 (USP25-His6, Boston Biochem E-546) (Homo sapiens), is > 2000 nM

Entry Cc1ccc2c(N)c(C(=O)N[C@H]3COc4cc(N5CCC[C@@](N)(C(F)(F)F)C5)ccc4C3)sc2n1 (single isomer, unassigned) under USP25 (USP25-His6, Boston Biochem E-546) (Homo sapiens) had IC50 of 50 to 200 nM

Bench note, USP25 (USP25-His6, Boston Biochem E-546) (Homo sapiens): Nc1c(C(=O)N[C@H]2COc3cc(N4CC5CCC(C4)N5)ccc3C2)sc2ncc(F)cc12 (single isomer, unassigned) , IC50 reads 200 to 2000 nM

I looked up CCn1ccc2cc(C(=O)N[C@H]3COc4cc(N5CC6CNCC(C5)C6(F)F)ccc4C3)cnc21 and its IC50 for USP25 (USP25-His6, Boston Biochem E-546) (Homo sapiens) was 1 to 50 nM

// IC50 (USP25 (USP25-His6, Boston Biochem E-546) (Homo sapiens)) for Cc1cc(C(F)(F)F)c2c(N)c(C(=O)N[C@H]3COc4cc(N5CC6CC(C5)N6)ccc4C3)sc2n1 = 50 to 200 nM

Tested system USP25 (USP25-His6, Boston Biochem E-546) (Homo sapiens); IC50 recorded for Cc1cc(C(F)(F)F)c2c(N)c(C(=O)N[C@H]3COc4cc(N5CC6CNCC(C5)C6(F)F)ccc4C3)sc2n1 was 1 to 50 nM

The compound Cc1ccc2c(N)c(C(=O)N[C@@H]3COc4cc(N5CC6CCC(C5)N6)ccc4C3)sc2n1 (single isomer, unassigned) , when measured on USP25 (USP25-His6, Boston Biochem E-546) (Homo sapiens), yielded IC50 of > 2000 nM

Form field IC50 for item Cc1cnc2c(N)c(C(=O)N[C@H]3CCc4cc(N5CCNCC5)c(C)cc4C3)sc2n1 (single isomer, unassigned) on USP25 (USP25-His6, Boston Biochem E-546) (Homo sapiens): > 2000 nM

Case Cc1ccc2c(N)c(C(=O)N[C@@H]3COc4cc(N5CCNCC5)ccc4C3)sc2n1 (single isomer, unassigned) , USP25 (USP25-His6, Boston Biochem E-546) (Homo sapiens), IC50 recorded as > 2000 nM

Entry Cc1cnc2c(N)c(C(=O)N[C@@H]3CCc4cc(N5CCNCC5)c(C)cc4C3)sc2n1 (single isomer, unassigned) , USP25 (USP25-His6, Boston Biochem E-546) (Homo sapiens) data, IC50 value: > 2000 nM

Noted IC50 for Cc1nc2sc(C(=O)N[C@H]3COc4cc(N5CC6CCCC(C5)N6)ccc4C3)c(N)c2s1 , tested on USP25 (USP25-His6, Boston Biochem E-546) (Homo sapiens): 200 to 2000 nM

Entry Cc1cc(C(F)(F)F)c2c(N)c(C(=O)N[C@H]3COc4cc(N5CC6CNCC(C5)O6)ccc4C3)sc2n1 under USP25 (USP25-His6, Boston Biochem E-546) (Homo sapiens) had IC50 of 1 to 50 nM

Summary line: Cc1cc(C)c2c(N)c(C(=O)N[C@H]3COc4cc(N5CCNCC5)ccc4C3)sc2n1 , USP25 (USP25-His6, Boston Biochem E-546) (Homo sapiens), reported IC50 = 50 to 200 nM
